Where do the numbers come from? From the supplement of paper PMC8728848.

TARGET SYSTEM: GlcNAc(b1-3)[GlcNAc(b1-4)][GlcNAc(b1-6)]GlcNAc
EXPERIMENTAL DETAILS: glycan array binding signal (z-score within array); higher = stronger binding
CONDITION SET: glycan notation: IUPAC condensed, linker removed
This excerpt belongs to a sample that is enriched for the strongest signals.
PARAMETER: glycan array binding signal (z-score)

>>> reported_value("PfulAvr4 (Pseudocercospora fuligena) (protein) HHHHHHDYKDDDDKTYVQDKTPAFVCPAADIKTTKCLGPKDCLYPSPKTCNGYIQCSPADDSYLTGIIHEMPCPSGLLWNDNKKWCDWPENTTCGLVKSAGATEVDATKQGPTPGKYHG")
-0.124
>>> reported_value("AFL5 (Aspergillus fumigatus), Q4WB00 (protein) MDNFMEMTKKLGHQPELLRLRALDATYDDALEGKLVVAPLDMSEPGKKILDSGTADGTWLRNVRSKQSVPHDYYGSDVEGELFPKDPDGITYFAHSFKDPWPQQYLGFFDLVHIRGSLAGSAPEGPAPVIQNLTTLLKPGGWVQLMEMNAFSPPPNGPAMTDFAKMASEMFTGIGVGDFANNNKSMLEDAGLKNVQEKRVIVNLGKKAKPELHDQSIHGVTGPIVPLTSVARTVKSSFTGEQLDALPARVKEELETEGGQVEMIIAFGQKA")
-0.493
>>> reported_value("RBMC1 (Vibrio cholerae) (protein) QQSQRVVTADNLMYLRSGFAIDAIGTTVNNLVGGPVQGTNGGVLRAPIALDQLQSVEVTSGLYNWGGYHIVAIKFTMKDGSSVLLGSTHYASNKKVETYTVPQGKRIKQINVWTGGWLVEGFQFVY")
-0.158
>>> reported_value("PA-IL (Pseudomonas aeruginosa), Q05097 (protein) MAWKGEVLANNEAGQVTSIIYNPGDVITIVAAGWASYGPTQKWGPQGDREHPDQGLICHDAFCGALVMKIGNSGTIPVNTGLFRWVAPNNVQGAITLIYNDVPGTYGNNSGSFSVNIGKDQS")
-0.228
>>> reported_value("Epa22 (Candida glabrata) (protein) MGSSHHHHHHSSGLVPRGSHMKRALSSQNPFGYPIGCSPQSTNVIPGLTMELYSYPIVSGTPPNCYDASYVDPEYPRTGYLKRKMIGKSTGVTGSLNYKFSVEKACMVKYGNLPAGYNYNEPLTVSNFTMLLYGYFKPQTSGIHTFFVNADDLLYINFGAGNAFDCCKREDSKFKLGEYVAYDIWHVDSSKNKVSLNLEKDVYYPIRMFFNNIGKDSSLDLSFSVNGAVEHITDFSGYLYSVPDQPDACPAPIGYDTTCK")
-0.383
>>> reported_value("Eosinophil-derived neurotoxin (EDN) (Homo sapiens), P10153 (protein) MVPKLFTSQICLLLLLGLLAVEGSLHVKPPQFTWAQWFETQHINMTSQQCTNAMQVINNYQRRCKNQNTFLLTTFANVVNVCGNPNMTCPSNKTRKNCHHSGSQVPLIHCNLTTPSPQNISNCRYAQTPANMFYIVACDNRDQRRDPPQYPVVPVHLDRII")
0.413
>>> reported_value("SrpA (Streptococcus sanguis) (protein) SSKSESTVNSQSASSETNRSSTNNGSTSSSSETARVRKRRATDTTPPTITVPSDIIAYRGEEFEFYFEITDDSGQVKNIELSTFGKPLGLNWLEYSEDNFNVPGNATSDNPLRVRVHGTVPLNEPIPADKNRAQFTRTIRAWDAAGNVSSNITFVIKYRAQTDKYNPADPTITYVDRLSSLSPSEKNAVEAAVRAANPQIPAAARITVSANGTVTITYPDSSTDTITANRVVKDLASSRSALT")
-0.657
>>> reported_value("RbmA (Vibrio cholerae), A0A2H4NFB8 (protein) MSNFKGSIMNKRHYYLASCLALLFSTASYAEVDCELQPVIEANLSLNQNQLASNGGYISSQLGIRNESCETVKFKYWLSIKGPEGIYFPAKAVVGVDTAQQESDALTDGRMLNVTRGFWVPEYMADGKYTVSLQVVAENGEVFKANQEFVKGGDLNSLPELNGLTIDIKNQFGINSVESTGGFVPFTIDLNNGREGEAKVEFWMTAVGPDGLIIPVHSREKWMIIAGNTFSKVRGINFDKSYPAGEYTINAQVVDIVSGERVEQLMTVVKK")
0.095
